tested-target: Neuronal acetylcholine receptor subunit alpha-7 (Homo sapiens, UniProt P36544)
Sequence (P36544 whole entry): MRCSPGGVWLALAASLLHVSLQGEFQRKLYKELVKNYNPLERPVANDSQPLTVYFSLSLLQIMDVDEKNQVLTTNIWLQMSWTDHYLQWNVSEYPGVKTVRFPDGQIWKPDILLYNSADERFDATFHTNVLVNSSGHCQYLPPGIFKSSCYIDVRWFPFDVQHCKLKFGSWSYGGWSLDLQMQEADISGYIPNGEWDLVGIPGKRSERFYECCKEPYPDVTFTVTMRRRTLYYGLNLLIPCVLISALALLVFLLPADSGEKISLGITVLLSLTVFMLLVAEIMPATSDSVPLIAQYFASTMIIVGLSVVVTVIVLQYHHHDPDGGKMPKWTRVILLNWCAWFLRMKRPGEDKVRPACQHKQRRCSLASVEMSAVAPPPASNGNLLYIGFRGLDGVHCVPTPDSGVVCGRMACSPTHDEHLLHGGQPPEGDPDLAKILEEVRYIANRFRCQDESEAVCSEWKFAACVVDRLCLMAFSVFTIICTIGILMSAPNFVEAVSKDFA
run-description: Positive allosteric modulation activity at human alpha7 nAChR expressed in Xenopus laevis oocytes assessed as increase in acetylcholine-induced channel current at 10 uM at -90 mV holding potential preincubated for 2 mins followed by co-application with acetylcholine for 10 secs by two-electrode voltage clamp method relative to control
Assay type: cell-based
measured-property: Emax (%)

Please review the following examples before continuing.
Cc1cccc(Cl)c1NC(=O)c1cc(-c2ccsc2)cnc1N ... 153
COc1ccc(-c2cnc(N)c(C(=O)Nc3c(C)cccc3Cl)c2)cc1 ... 531
Cc1cc(F)ccc1-c1cnc(N)c(C(=O)Nc2c(C)cccc2Cl)c1 ... 225
CCc1ccc(-c2cnc(N)c(C(=O)Nc3c(C)cccc3Cl)c2)cc1 ... 455
Cc1cccc(Cl)c1NC(=O)c1cc(-c2ccc(Cl)cc2)cnc1N ... 278
Cc1cccc(Cl)c1NC(=O)c1cc(-c2ccc(F)cc2)ccc1N ... 136

P. Cc1cccc(Cl)c1NC(=O)c1cc(-c2cccnc2)cnc1N
Q. Cc1cccc(Cl)c1NC(=O)c1cc(-c2ccc(F)cc2)cnc1N
R. COc1cccc(-c2cnc(N)c(C(=O)Nc3c(C)cccc3Cl)c2)c1
S. Cc1cc(-c2cnc(N)c(C(=O)Nc3ccccc3)c2)ccc1F
T. Cc1cc(-c2cnc(N)c(C(=O)Nc3c(C)cccc3Cl)c2)ccc1F
## Task Arrange the 5 compounds from largest to smallest Emax. Could you list the labels in the order requested?
## Result T, Q, R, P, S
(T: 1470%, Q: 604%, R: 212%, P: 138%, S: 94%)

Data origin, for the record: ChEMBL document CHEMBL4387746
